Biological target: SpLsb4
Assay: SPOT peptide array binding signal intensity (averaged, normalized) (arbitrary units (background-subtracted, floor 0; scale differs between SH3 domains)); higher = stronger binding of the SH3 domain to the peptide
Rule: condition met for SPOT peptide array binding signal intensity not less than 50, condition not met for anything less.

Worked examples follow.
RLSRLLLSLPPESFT : condition not met
RLPAPPPPPRRGPAP : condition met
PSRRDSLSIPRAVDA : condition not met
LYKRKPILLPDPKPL : condition not met
RTRRRPPPPPIPSTQ : condition met

Moving on to the next binder.
Exam item: Hello, I need to know if RKQRSIPLSPIVPES has measured SPOT peptide array binding signal intensity not below 50. Thanks!
Marked response: condition not met
